# degraded at 1 h per record follows
Experiment: physchem
Conditions: aqueous buffer, pH 7.4, % of Baclofen Released
quantity.measured: degraded at 1 h (%)

molecule: CCCC(=O)O[C@H](CCC)OC(=O)NC[C@H](CC(=O)O)c1ccc(Cl)cc1 [(86)]
result.units: %
result: 1
--
molecule: CCCC(=O)OC(OC(=O)NC[C@H](CC(=O)O)c1ccc(Cl)cc1)C(C)C (stereo partly shown) [(27)]
result.units: %
result: 0
--
molecule: CC(C)C(OC(=O)NC[C@H](CC(=O)O)c1ccc(Cl)cc1)OC(=O)C(C)(C)C (stereo partly shown) [(43)]
result.units: %
result: 0
--
molecule: CC(C)C(=O)O[C@@H](OC(=O)NC[C@H](CC(=O)O)c1ccc(Cl)cc1)C(C)C [(104)]
result.units: %
result: 0
